property.label: melting point

O=c1c2cn(-c3ccccc3)nc2ncn1Cc1c(F)cccc1F [Compound 52] : 189 to 191 °C
CC(C)n1cc2c(=O)n(Cc3c(F)cccc3F)cnc2n1 [Compound 45] : 156 to 157 °C
CCn1cc2c(=O)n(Cc3c(F)cccc3Cl)cnc2n1 [Compound 35] : 207 to 209 °C

Dear colleague, could you please provide melting point for the molecules listed below?
1. O=c1c2c[nH]nc2ncn1Cc1ccccc1Cl [Compound 1]
2. Cn1cc2c(=O)n(Cc3ccccc3-c3ccccc3)cnc2n1 [Compound 24]
3. Cn1cc2c(=O)n(Cc3ccc(Cl)cc3)cnc2n1 [Compound 27]

Result:
["186 to 187 °C", "189 to 191 °C", "209 to 210 °C"]

// each listed molecule needs a value for melting point
1. Cc1ccc(Cn2cnc3nn(C)cc3c2=O)cc1 [Compound 16]
2. Cn1cc2c(=O)n(Cc3c(F)cccc3Cl)cnc2n1 [Compound 23]
3. O=c1c2c[nH]nc2ncn1Cc1c(F)cccc1F [Compound 5]
4. Cc1nc2n[nH]cc2c(=O)n1Cc1ccccc1Cl [Compound 61]
5. O=c1c2c[nH]nc2ncn1Cc1ccc(Cl)cc1 [Compound 2]
6. Cn1cc2c(=O)n(Cc3ccccc3[N+](=O)[O-])cnc2n1 [Compound 26]

Result:
224 to 226 °C
216 to 218 °C
214 to 216 °C
222 to 224 °C
246 to 247 °C
220 to 222 °C

The origin of these recorded values is patent US20030186997A1.
